Where do the numbers come from? From the supplement of paper PMC8728848.

Biological target: GalNAc3S(b1-4)GlcNAc
Assay: glycan array binding signal (z-score within array); higher = stronger binding
Settings: glycan notation: IUPAC condensed, linker removed
The full list was thinned out, with the strongest signals kept by preference.
Assay Metric: glycan array binding signal (z-score)
Number, no unit, nothing else.

# glycan array binding signal (z-score) (binder: SfaEH (Escherichia coli), Q1RDG5 (protein) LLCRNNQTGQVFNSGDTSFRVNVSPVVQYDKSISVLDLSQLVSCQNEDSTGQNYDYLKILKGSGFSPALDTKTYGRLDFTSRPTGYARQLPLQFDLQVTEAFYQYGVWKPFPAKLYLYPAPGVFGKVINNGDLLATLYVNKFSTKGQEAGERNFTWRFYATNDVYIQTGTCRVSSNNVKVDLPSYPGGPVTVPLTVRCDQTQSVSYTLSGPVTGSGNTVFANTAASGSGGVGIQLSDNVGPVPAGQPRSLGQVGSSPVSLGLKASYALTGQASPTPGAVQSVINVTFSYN ) is -0.199

Consider CIH1 (Colletotrichum higginsianum) (protein) LPQATPTTPTPTSASAAATISATSSPTCSPGPVIDYTVVSGDTLTIISQRFSSGICNIADASGITNPNFLSLGQVLQVPTYVCTPDNTSCLAKEGSDTCVEGGPATHTIVAGDTFFLVAQSLGLDVNALLAANEGVDPLLLQIGDVINIPVC . Its measured glycan array binding signal (z-score) is -0.066

Pbx1CASH domain (Cryptococcus neoformans) (protein) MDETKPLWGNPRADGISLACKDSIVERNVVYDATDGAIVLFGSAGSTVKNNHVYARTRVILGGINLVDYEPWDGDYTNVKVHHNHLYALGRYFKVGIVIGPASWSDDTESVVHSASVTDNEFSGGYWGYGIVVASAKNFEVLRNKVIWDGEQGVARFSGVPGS yielded glycan array binding signal (z-score) of -0.852

Record summary for SJCP3842 (Schistosoma japonicum) (protein) MFKMRIINLVNISTVLLLINLLQTKSRLVGKENGFMLTVSIYGAQLSDKMTSVPVSWTIDYEDPEKSAFKKLVTDSCDTFSEYVKSQIPKGSVDGQCTSHIFQRPGSGSGVSISLTLSFIYVDVTQPDTVALKTELEKHFANFVTIHSHKITQAQFRINQKAIVIPTGDKDAIDGSKWKIIAIIALVALAIVVIGGFIYICVK : reported glycan array binding signal (z-score) = 0.48
